Target: Human TASK-1 channels (Homo sapiens (Human))
Test: Activity on the TASK-1 channel in Xenopus oocytes (two-microelectrode voltage clamp)
Type: cell-based
Conditions: 5 μM; percentage inhibition of TASK-1 control current, Xenopus oocytes
Observable: inhibition at 5 µM (%)

P: CCc1cc(F)cc2c1C[C@@H](O)[C@@H]2n1nc(-c2cccc(C#N)c2)c2c1CCN(C(C)=O)C2 [Example 19b]
Q: CCC(=O)O[C@@H]1Cc2c(F)cc(F)cc2[C@H]1n1nc(-c2cccc(C#N)c2)c2c1CCN(C(=O)CC)C2 [Example 15a]
When P and Q are compared, which has the higher number for inhibition at 5 µM? Return value: the label identifying the chosen record. P

====

Biological target: UniProt:O14649
Assay: Activity on the TASK-1 channel in Xenopus oocytes (two-microelectrode voltage clamp)
Settings: human TASK-1 expressed in Xenopus oocytes, currents during 500 ms pulses to 40 mV, room temperature
Observable: IC50 (nM)

Worked set:
- CC(=O)N1CCc2c(c(-c3cccc(C(F)(F)F)n3)nn2[C@@H]2c3cc(Cl)cc(Cl)c3C[C@H]2O)C1 [Example 11m]: 518
- CC(=O)N1CCc2c(c(-c3ccc(F)cc3)nn2[C@H]2CCc3ccccc32)C1 [Example 12b]: 479
- CC(=O)N1CCc2c(c(-c3cccc(C#N)c3)nn2[C@@H]2c3cc(Cl)cc(F)c3C[C@H]2O)C1 [Example 11j]: 439
- COc1ccc(F)c(-c2nn([C@@H]3c4cc(F)cc(F)c4C[C@H]3O)c3c2CN(C(C)=O)CC3)c1 [Example 11c]: 204
- CC(=O)N1CCc2c(c(-c3cccc(C#N)c3)nn2[C@@H]2c3cc(Cl)ccc3C[C@H]2O)C1 [Example 11p]: 685
- CO[C@@H]1Cc2c(F)cc(F)cc2[C@H]1n1nc(-c2cccc(C#N)c2)c2c1CCN(C(C)=O)C2 [Example 16a]: 446
- CC(=O)N1CCc2c(c(-c3cccc(C#N)c3)nn2[C@@H]2c3cc(F)cc(F)c3C[C@@]2(C)O)C1 (racemic) [Example 11w]: 1260

1: CC(=O)N1CCc2c(c(-c3ccc(F)cc3)nn2[C@@H]2c3c(Cl)cc(Cl)cc3C[C@H]2O)C1 (racemic) [Example 11ac]
2: CC(=O)N1CCc2c(c(-c3cccc(OC(F)(F)F)c3)nn2[C@H]2c3cc(F)cc(F)c3C[C@@H]2O)C1 [Example 11r]
3: CC(=O)N1CCc2c(c(-c3cccc(C#N)c3)nn2[C@@H]2c3cc(F)cc(C)c3C[C@H]2O)C1 [Example 19a]
4: CC(=O)N1CCc2c(c(-c3cccc(F)c3)nn2[C@@H]2c3cc(F)cc(F)c3C[C@H]2O)C1 [Example 11aa]
Please rank these compounds by IC50 in descending order. When ranking, write the labels in the order the request describes. 1, 4, 2, 3
(1: 3880 nM, 4: 2220 nM, 2: 789 nM, 3: 231 nM)

====

Target: Human TASK-1 channels (Homo sapiens (Human), UniProt O14649)
Sequence (O14649 whole entry): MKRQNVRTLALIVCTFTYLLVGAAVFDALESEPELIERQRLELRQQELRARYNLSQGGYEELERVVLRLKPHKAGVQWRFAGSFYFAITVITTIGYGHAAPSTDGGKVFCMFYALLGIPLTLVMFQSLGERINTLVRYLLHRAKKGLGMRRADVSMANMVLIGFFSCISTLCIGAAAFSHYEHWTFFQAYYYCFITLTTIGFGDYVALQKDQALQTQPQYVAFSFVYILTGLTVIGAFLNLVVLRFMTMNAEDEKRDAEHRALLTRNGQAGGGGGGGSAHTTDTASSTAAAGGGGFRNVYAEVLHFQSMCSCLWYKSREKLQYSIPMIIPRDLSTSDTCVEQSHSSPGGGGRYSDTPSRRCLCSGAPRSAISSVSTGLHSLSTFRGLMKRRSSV
Assay: Activity on the TASK-1 channel in Xenopus oocytes (two-microelectrode voltage clamp)
Format: cell-based
Details: 5 μM; percentage inhibition of TASK-1 control current, Xenopus oocytes
Observable: inhibition at 5 µM (%)

Worked set:
• N#Cc1cccc(-c2nn([C@@H]3c4cc(F)cc(F)c4C[C@H]3O)c3c2CN(CC2CC2)CC3)c1 [Example 18e] = 81
• COCCN1CCc2c(c(-c3ccc(F)cc3)nn2[C@@H]2c3cc(F)cc(F)c3C[C@H]2O)C1 [Example 18g] = 56
• CCCN1CCc2c(c(-c3ccc(F)cc3)nn2[C@@H]2c3cc(F)cc(F)c3C[C@H]2O)C1 [Example 18f] = 67

a: CC(=O)N1CCc2c(c(-c3ccc(C(F)(F)F)cc3)nn2[C@@H]2c3cc(F)cc(F)c3C[C@H]2O)C1 [Example 11ae]
b: CC(C)(C)C(=O)N1CCc2c(c(-c3cccc(C#N)c3)nn2[C@@H]2c3cc(F)cc(F)c3C[C@H]2O)C1 [Example 14d]
When a and b are compared, which has the higher number for inhibition at 5 µM? Return value: the label identifying the chosen record. b
